Hi there, I'd appreciate the recorded Ki for every entry that follows.
# Target Under Test: full-length ATR (Homo sapiens (Human))
# Protocol Notes: ATR Inhibition Assay (radioactive-phosphate incorporation)
# Assay type: biochemical
# Settings: read-out: ATR Ki

Data request: Suppose we examine the compound NCc1ccc(-c2nnc(-c3nc(-c4cccnc4)cnc3N)[nH]2)cc1 ; what Ki value has been reported?
Data returned: 10 to 100 nM

Data request: Moving on to the next compound: CNc1nnc(-c2nc(-c3ccc(C(=O)N(C)C)cc3)cnc2N)o1
Data returned: 100 to 5000 nM

Data request: Moving on to the next compound: CC(=O)Nc1cccc(-c2cnc(N)c(-c3nnc(-c4ccccc4)o3)n2)c1
Data returned: 10 to 100 nM

Data request: Moving on to the next compound: CN(C)C(=O)c1ccc(-c2cnc(N)c(-c3nnc(-c4ccccc4OCCN)o3)n2)cc1
Data returned: 10 to 100 nM

Data request: Moving on to the next compound: Nc1ncc(-c2cccc(C(=O)NCCN3CCCCC3)c2)nc1C(=O)Nc1ccccc1
Data returned: 100 to 5000 nM

====

Hi there, I'd appreciate the recorded pKi for every entry that follows.
# Target Under Test: full-length ATR (Homo sapiens (Human))
# Protocol Notes: ATR Inhibition Assay (radioactive-phosphate incorporation)
# Type: biochemical
# Settings: read-out: ATR Ki
pKi: −log10 of the molar value.

Data request: Suppose we examine the compound Nc1ncc(-c2ccc(S(=O)(=O)C3CCOCC3)cc2)nc1-c1nnc(-c2ccccc2F)o1 ; what pKi value has been reported?
Data returned: ≥ 8.00

Data request: Moving on to the next compound: CC1CN(C(=O)c2ccc(-c3cnc(N)c(-c4nnc(-c5ccccc5)o4)n3)cc2)CCN1 (centres unmarked)
Data returned: 7.00 to 8.00

Data request: Moving on to the next compound: CNCc1ccc(-c2nnc(-c3nc(-c4ccc(S(=O)(=O)N5CCC5)cc4)cnc3N)o2)cc1
Data returned: ≥ 8.00

Data request: Moving on to the next compound: CN(C)C(=O)c1ccc(-c2cnc(N)c(-c3nnc(-c4ccccc4-c4ccsc4)o3)n2)cc1
Data returned: 7.00 to 8.00

Data request: Moving on to the next compound: CN(C)c1cccc(NC(=O)c2nc(-c3cccnc3)cnc2N)c1
Data returned: 5.30 to 7.00

Data request: Moving on to the next compound: COc1ccc2nc(-c3nc(-c4ccc(S(C)(=O)=O)cc4)cnc3N)[nH]c2c1
Data returned: 7.00 to 8.00

Data request: Moving on to the next compound: CC(C)S(=O)(=O)c1ccc(-c2cnc(N)c(-c3nnc(-c4ccc(CNC5CCOC5)cc4F)o3)n2)cc1 (centres unmarked)
Data returned: ≥ 8.00

Data request: Moving on to the next compound: CC(C)S(=O)(=O)c1ccc(-c2cnc(N)c(-c3nnc(-c4ccccc4)o3)n2)c(C#N)c1
Data returned: ≥ 8.00

====

# Target Under Test: full-length ATR (Homo sapiens (Human), UniProt Q13535)
# Sequence (Q13535 whole entry): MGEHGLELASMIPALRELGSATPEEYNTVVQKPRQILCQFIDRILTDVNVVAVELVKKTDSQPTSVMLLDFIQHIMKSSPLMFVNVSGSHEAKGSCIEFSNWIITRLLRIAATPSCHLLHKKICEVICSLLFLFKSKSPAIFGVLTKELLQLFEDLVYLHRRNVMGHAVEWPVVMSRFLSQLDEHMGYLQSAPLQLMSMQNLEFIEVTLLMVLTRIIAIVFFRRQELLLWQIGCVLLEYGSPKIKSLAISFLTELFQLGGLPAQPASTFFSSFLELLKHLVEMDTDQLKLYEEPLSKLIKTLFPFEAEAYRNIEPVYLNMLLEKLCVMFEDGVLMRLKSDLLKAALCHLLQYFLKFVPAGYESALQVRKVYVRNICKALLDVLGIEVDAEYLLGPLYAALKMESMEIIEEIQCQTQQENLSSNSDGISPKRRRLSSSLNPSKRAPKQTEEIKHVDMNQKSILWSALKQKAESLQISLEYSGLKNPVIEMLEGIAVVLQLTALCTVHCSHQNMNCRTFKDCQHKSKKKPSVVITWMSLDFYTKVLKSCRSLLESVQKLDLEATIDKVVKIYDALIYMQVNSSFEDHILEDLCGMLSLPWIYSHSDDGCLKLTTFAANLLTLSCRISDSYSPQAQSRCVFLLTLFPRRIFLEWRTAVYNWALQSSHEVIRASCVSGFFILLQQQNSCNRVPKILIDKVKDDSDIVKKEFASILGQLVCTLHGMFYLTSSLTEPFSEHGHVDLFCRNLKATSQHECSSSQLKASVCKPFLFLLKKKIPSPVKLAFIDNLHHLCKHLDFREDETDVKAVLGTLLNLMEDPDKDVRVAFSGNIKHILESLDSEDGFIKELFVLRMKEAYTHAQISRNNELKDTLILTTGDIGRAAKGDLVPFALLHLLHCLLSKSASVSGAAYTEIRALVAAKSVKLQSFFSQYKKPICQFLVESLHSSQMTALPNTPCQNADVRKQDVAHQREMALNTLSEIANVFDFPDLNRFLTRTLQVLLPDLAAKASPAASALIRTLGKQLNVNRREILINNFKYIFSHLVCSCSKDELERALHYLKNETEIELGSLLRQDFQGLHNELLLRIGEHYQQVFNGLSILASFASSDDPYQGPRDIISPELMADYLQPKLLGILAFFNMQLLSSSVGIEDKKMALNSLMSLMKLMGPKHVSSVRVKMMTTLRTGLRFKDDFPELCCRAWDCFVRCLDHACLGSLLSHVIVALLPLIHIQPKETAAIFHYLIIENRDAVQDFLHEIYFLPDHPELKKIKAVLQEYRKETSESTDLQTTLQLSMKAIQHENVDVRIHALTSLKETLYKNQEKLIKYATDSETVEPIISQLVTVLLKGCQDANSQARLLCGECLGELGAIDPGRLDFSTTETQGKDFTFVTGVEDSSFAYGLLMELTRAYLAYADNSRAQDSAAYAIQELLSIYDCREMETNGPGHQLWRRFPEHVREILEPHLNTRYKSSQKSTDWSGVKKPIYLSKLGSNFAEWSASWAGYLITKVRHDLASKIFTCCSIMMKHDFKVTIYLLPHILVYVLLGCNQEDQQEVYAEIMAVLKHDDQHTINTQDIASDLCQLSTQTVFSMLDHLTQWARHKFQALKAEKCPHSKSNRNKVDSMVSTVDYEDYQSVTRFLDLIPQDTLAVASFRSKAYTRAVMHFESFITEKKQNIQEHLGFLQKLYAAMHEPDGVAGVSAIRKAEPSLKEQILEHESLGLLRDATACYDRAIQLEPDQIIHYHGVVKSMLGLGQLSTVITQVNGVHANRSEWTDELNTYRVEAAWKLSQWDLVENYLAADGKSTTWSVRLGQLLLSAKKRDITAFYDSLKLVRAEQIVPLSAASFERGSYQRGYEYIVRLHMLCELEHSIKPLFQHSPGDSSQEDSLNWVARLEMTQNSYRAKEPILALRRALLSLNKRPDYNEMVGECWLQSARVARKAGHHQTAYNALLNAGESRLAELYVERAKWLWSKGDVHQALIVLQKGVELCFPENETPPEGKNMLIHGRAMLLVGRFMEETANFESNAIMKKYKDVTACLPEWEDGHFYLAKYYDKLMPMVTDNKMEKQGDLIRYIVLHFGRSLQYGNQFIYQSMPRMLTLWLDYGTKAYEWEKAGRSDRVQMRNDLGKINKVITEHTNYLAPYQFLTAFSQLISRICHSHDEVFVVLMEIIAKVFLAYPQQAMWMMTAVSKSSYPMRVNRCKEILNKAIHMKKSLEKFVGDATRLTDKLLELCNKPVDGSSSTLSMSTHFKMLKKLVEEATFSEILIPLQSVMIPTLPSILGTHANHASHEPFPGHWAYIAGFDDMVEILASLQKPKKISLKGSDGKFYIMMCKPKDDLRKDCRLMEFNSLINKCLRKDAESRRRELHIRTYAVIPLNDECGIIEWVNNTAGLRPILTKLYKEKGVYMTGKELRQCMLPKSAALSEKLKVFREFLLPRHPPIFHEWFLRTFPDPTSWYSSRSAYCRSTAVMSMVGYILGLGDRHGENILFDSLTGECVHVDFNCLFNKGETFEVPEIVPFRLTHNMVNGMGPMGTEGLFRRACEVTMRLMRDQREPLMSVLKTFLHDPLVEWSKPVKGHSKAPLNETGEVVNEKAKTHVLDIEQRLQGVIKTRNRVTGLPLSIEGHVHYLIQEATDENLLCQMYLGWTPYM
# Protocol Notes: ATR Inhibition Assay (radioactive-phosphate incorporation)
# Type: biochemical
# Settings: read-out: ATR Ki
pKi: −log10 of the molar value.
Hi there, I'd appreciate the recorded pKi for every entry that follows.

Data request: Suppose we examine the compound Nc1ncc(-c2ccc(N3CCNCC3)nc2)nc1-c1nnc(-c2ccccc2)o1 ; what pKi value has been reported?
Data returned: 5.30 to 7.00

Data request: Moving on to the next compound: Nc1ncc(-c2ccc(C(=O)N3CCNC(C(F)(F)F)C3)cc2)nc1-c1nnc(-c2ccccc2)o1 (stereo not shown)
Data returned: ≥ 8.00

Data request: Moving on to the next compound: Nc1ncc(-c2cccc(C(=O)N3CCC(O)C3)c2)nc1C(=O)Nc1ccccc1 (stereo not shown)
Data returned: 5.30 to 7.00

Data request: Moving on to the next compound: N#Cc1cc(C(=O)N2CCCNCC2)ccc1-c1cnc(N)c(C(=O)Nc2nc3ccccc3[nH]2)n1
Data returned: ≥ 8.00

Data request: Moving on to the next compound: CN(C)C(=O)c1ccc(-c2cnc(N)c(-c3nnc(N4CCC4)o3)n2)cc1
Data returned: 5.30 to 7.00

Data request: Moving on to the next compound: Cc1ccsc1-c1nnc(-c2nc(-c3ccccc3[S+](C)[O-])cnc2N)o1 (stereo not shown)
Data returned: ≥ 8.00

Data request: Moving on to the next compound: CC(C)S(=O)(=O)c1ccc(-c2cnc(N)c(-c3nnc(C(=O)N4CC(N)C4)o3)n2)cc1
Data returned: 7.00 to 8.00

Data request: Moving on to the next compound: CNC(=N)c1ccc(-c2nnc(-c3nc(-c4ccc(S(=O)(=O)C(C)C)cc4)cnc3N)o2)cc1
Data returned: ≥ 8.00

Data request: Moving on to the next compound: CN(C)C(=O)c1ccc(-c2cnc(N)c(-c3nnc(NCc4ccccc4)o3)n2)cc1
Data returned: 5.30 to 7.00

Data request: Moving on to the next compound: Nc1ncc(-c2ccc(C(=O)N3CCCN(C=O)CC3)cc2)nc1-c1nnc(-c2ccccc2)o1
Data returned: ≥ 8.00

Data request: Moving on to the next compound: COc1ccccc1NC(=O)c1nc(-c2ccc3[nH]ccc3c2)cnc1N
Data returned: 7.00 to 8.00

Data request: Moving on to the next compound: CC(C)S(=O)(=O)c1ccc(-c2cnc(N)c(-c3nnc(CCCCN)o3)n2)cc1
Data returned: 5.30 to 7.00

Data request: Moving on to the next compound: Cc1ccc(-c2nnc(-c3nc(-c4ccc(C(=O)N(C)C)cc4)cnc3N)o2)cc1
Data returned: 7.00 to 8.00

Data request: Moving on to the next compound: CC(C)S(=O)(=O)c1ccc(-c2cnc(N)c(-c3nnc(CN)o3)n2)cc1
Data returned: 5.30 to 7.00

Data request: Moving on to the next compound: Nc1ncc(-c2cccnc2)nc1C(=O)Nc1ccc2[nH]ccc2c1 [Compound I-104]
Data returned: 7.00 to 8.00

Data request: Moving on to the next compound: CN(C)C(=O)c1ccc(-c2cnc(N)c(-c3nnc(Nc4ccccc4)o3)n2)cc1
Data returned: 7.00 to 8.00

Data request: Moving on to the next compound: Cc1cc(NC(=O)c2nc(-c3ccc(S(C)(=O)=O)cc3)cnc2N)n(C)n1
Data returned: 5.30 to 7.00

Data request: Moving on to the next compound: CN(C)C(=O)c1ccc(-c2cnc(N)c(-c3nnc(Nc4ccc(Cl)cc4)o3)n2)cc1
Data returned: 7.00 to 8.00

Data request: Moving on to the next compound: CC(C)NCc1ccc(-c2nnc(-c3nc(-c4ccc(S(=O)(=O)C(C)C)cc4)cnc3N)o2)s1
Data returned: ≥ 8.00

Data request: Moving on to the next compound: CC(O)c1cccc(-c2nnc(-c3nc(-c4ccc(C(=O)N(C)C)cc4)cnc3N)o2)c1 (stereo not shown)
Data returned: 7.00 to 8.00

Data request: Moving on to the next compound: CC(C)S(=O)(=O)c1ccc(-c2cnc(N)c(-c3nnc(-c4ccc(C5CNC5)cc4)o3)n2)cc1
Data returned: ≥ 8.00

Data request: Moving on to the next compound: Nc1ncc(-c2ccc(C(=O)N3CCCNCC3)cc2)nc1C(=O)Nc1nc2ccccc2s1
Data returned: 7.00 to 8.00

Data request: Moving on to the next compound: CN1CCN(c2ccc(-c3cnc(N)c(-c4nnc(-c5ccccc5)o4)n3)cn2)CC1
Data returned: 5.30 to 7.00

Data request: Moving on to the next compound: CNCc1ccc(-c2nnc(-c3nc(-c4ccc(S(=O)(=O)C(C)C)cc4)cnc3N)o2)cc1F
Data returned: ≥ 8.00

Data request: Moving on to the next compound: CS(=O)(=O)c1ccc(-c2cnc(N)c(C(=O)Nc3ccccn3)n2)cc1
Data returned: 7.00 to 8.00

Data request: Moving on to the next compound: CC(C)(C)S(=O)(=O)c1ccc(-c2cnc(N)c(-c3nnc(-c4ccccc4)o3)n2)cc1
Data returned: ≥ 8.00

Data request: Moving on to the next compound: C[S+]([O-])c1ccccc1-c1cnc(N)c(-c2nnc(-c3ccccc3)o2)n1 (stereo not shown)
Data returned: ≥ 8.00

Data request: Moving on to the next compound: C#Cc1ccccc1-c1cnc(N)c(-c2nnc(-c3ccccc3)o2)n1
Data returned: 5.30 to 7.00

Data request: Moving on to the next compound: Cc1ccc(-c2nnc(-c3nc(-c4ccc(C(=O)N(C)C)cc4)cnc3N)o2)s1
Data returned: 7.00 to 8.00

Data request: Moving on to the next compound: Cc1ccc2nc(-c3nc(-c4ccc(C(=O)N5CCCN(C)CC5)cc4)cnc3N)[nH]c2c1 [Compound I-151]
Data returned: 7.00 to 8.00

Data request: Moving on to the next compound: CNCc1ccc(-c2nnc(-c3nc(-c4ccc(S(=O)(=O)C(C)C)cc4C)cnc3N)o2)cc1
Data returned: ≥ 8.00

Data request: Moving on to the next compound: COc1ccccc1NC(=O)c1nc(-c2ccoc2)cnc1N
Data returned: 7.00 to 8.00

Data request: Moving on to the next compound: CNCc1ccc(-c2nnc(-c3nc(-c4ccc(S(=O)(=O)C(C)C)cc4Cl)cnc3N)o2)cc1
Data returned: ≥ 8.00

Data request: Moving on to the next compound: Nc1ncc(-c2cccnc2)nc1C(=O)Nc1cccc2cc[nH]c12 [Compound I-83]
Data returned: 5.30 to 7.00
